experimentalProtocol: Compound induced cellular toxicity in HepG2 cells, ATPlite 1Step
Type: cell-based
conditionNotes: human, three days exposure, 50% reduction of total ATP vs no drug controls
readout: CC50 at 3 days

// CC50 at 3 days lookup, key: CC(C)[C@@H]1Cn2nc(-c3ccc(O)cc3)c(-c3ccc(O)cc3)c2-c2c(F)c(=O)c(C(=O)O)cn21 [Example 191]
> 25 µM

// CC50 at 3 days lookup, key: CC(C)(C)[C@@H]1Cn2nc(-c3ccc(F)cc3)c(-c3cccc(F)c3)c2-c2cc(=O)c(C(=O)O)cn21 [Example 168]
10 to 25 µM

// CC50 at 3 days lookup, key: Cc1cccc(F)c1-c1cc2n(n1)C[C@@H](C(C)(C)C)n1cc(C(=O)O)c(=O)cc1-2 [Example 51]
> 25 µM

// CC50 at 3 days lookup, key: CC(C)(C)[C@@H]1Cn2nc(-c3cccc4c3OCO4)cc2-c2cc(=O)c(C(=O)O)cn21 [Example 26]
> 25 µM

// CC50 at 3 days lookup, key: COc1cc(-c2cc3n(n2)C[C@@H](C(C)(C)C)n2cc(C(=O)O)c(=O)cc2-3)c(OC)nn1 [Example 16]
> 25 µM

// CC50 at 3 days lookup, key: CC(C)(C)[C@@H]1Cn2nc(-c3ccc(F)cc3)cc2-c2cc(=O)c(C(=O)O)cn21 [Example 1]
> 25 µM

// CC50 at 3 days lookup, key: CC(C)(C)[C@@H]1Cn2nc(C3CC3)c(-c3cccs3)c2-c2cc(=O)c(C(=O)O)cn21 [Example 156]
> 25 µM

Sourced from patent US12264159B2
